Origin of the recorded values: PubChem BioAssay (NCI)

Test system: SW-620 colon
Assay: NCI-60 one-dose screen, 48 h (100 = growth as untreated, 0 = no growth, -100 = all killed)
Assay conditions: 10 µM
This is part of a sample that, as a whole, favours compounds with a hit. Of some 83,000 tested, about 20% had one in any assay.
# label = True if growth >= 30% else False

Compound	Category
Cc1ccc(-n2c(-c3cc4c([nH]c5ccccc54)c(-c4cccc(O)c4)n3)n[nH]c2=S)cc1	False
CCN1CCN(c2nc(NNC(=O)c3cccc(OC)c3)nc(N3CCN(C(c4ccccc4)c4ccccc4)CC3)n2)CC1	True
CCOc1nc(-c2ccccc2)cc2c(O)c(C(=O)NC(C)C)[nH]c(=O)c12	True
O=C(N/N=C\c1cc(Cl)ccc1O)c1ccncc1	True
COc1ccc(-c2nnc(N3CCN(C(=O)CN4CCN(c5ccc(Cl)cc5)CC4)CC3)nc2-c2ccc(OC)cc2)cc1	True
O=C(C=P(c1ccccc1)(c1ccccc1)c1ccccc1)c1ccc(Br)cc1	True
COc1ccccc1Cn1cc2c(c1-c1ccccc1)CCc1cnoc1-2	False
COc1ccc(C(C)=O)cc1N1C(=O)C2C(C1=O)C1(c3ccccc3)C(=O)C2(c2ccccc2)C(c2ccc(C)cc2)=C1c1ccc(C)cc1 (stereo not drawn)	False
Cc1ccc2oc(=O)cc(/C(=C3/C=CC=N3)c3ccc[nH]3)c2c1	False
COc1cccc2c1C(=O)c1c(O)c3c(c(O)c1C2=O)C[C@@](O)(C(=O)COC(=O)c1ccccc1)C[C@@H]3OC1CC(N)C(O)C(C)O1 (stereo partly drawn)	False
CC1=CSC2=NC(c3ccc(Cl)c(Cl)c3)=CC(c3ccc(Cl)cc3)N12 (stereo not drawn)	False
COc1cc(OC)cc(-c2n/c(=C\c3c(O)[nH]c4ccc(OC)cc34)cc3c2=Nc2ccccc2-3)c1	True
